System: SAU 29213
Experiment: MIC, broth microdilution (CLSI), substance alone or ATB combined with compound at 4 or 8 μg/mL
Type: cell-based, S. aureus
Conditions: ATB FOS; compound @8 μg/ml; SAU 29213
Quantity Kind: MIC ATB combined with compound (µg/mL)
Give a bare numeral; the unit µg/mL is implied.

Examples with answers:
# MIC ATB combined with compound lookup, item O=C1N2CC(c3cccnc3)=CC(C2)N1OS(=O)(=O)[O-].[Na+] (centres unmarked) [Example 8]
0.25

MIC ATB combined with compound for O=C1N2CC(c3ncco3)=CC(C2)N1OC(F)(F)C(=O)O (centres unmarked) [Example 7] ?
0.5

Others:
Given the entry NC[C@H]1C=C(c2cnco2)[C@@H]2CN1C(=O)N2OS(=O)(=O)[O-].O=C(O)C(F)(F)F.[Na+] (relative stereo) [Example 1] , report its measured MIC ATB combined with compound.
1
